# Tested on: CAL-120 (Breast Carcinoma);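 also: after 72 h of two-drug dosing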
# protocol: Bliss excess, mean over the matrix (fraction); higher = more synergy
# Lookup of reported Bliss excess keyed by entry
Provide a numeric answer; units are not to be included.

>>> reported("CN(C)CCCOc1ccc(-c2ccc3ncc4c(c3c2)n(C2CCOCC2)c(=O)n4C)cn1 [AZD0156] + C[C@@H]1COCCN1C2=NC(=NC(=C2)C3(CC3)[S@](=N)(=O)C)C4=C5C=CNC5=NC=C4 [AZD6738] (first compound max 1 µM, 7x7, partner max 10 µM)")
0.0142
>>> reported("COc1cccc(OCCCN)c1-c1cc(Nc2cnc(C#N)cn2)n[nH]1 [Prexasertib] + CCc1c2c(nc3ccc(O)cc13)-c1cc3c(c(=O)n1C2)COC(=O)[C@]3(O)CC [SN-38] (first compound max 1 µM, 7x7, partner max 0.3 µM)")
0.0574

Switching to the query record.
Task: Look up Bliss excess of CN(CCO)CC[C@H](CSc1ccccc1)Nc1ccc(S(=O)(=O)NC(=O)c2ccc(N3CCC([C@@H](O)c4ccccc4-c4ccc(Cl)cc4)CC3)cc2)cc1S(=O)(=O)C(F)(F)F [AZD4320] + C[C@@H](Nc1cc(F)cc(F)c1)c1cc(C(=O)N(C)C)cc2c(=O)cc(N3CCOCC3)oc12 [AZD8186] (first compound max 1 µM, 7x7, partner max 3 µM) and report it.
Result: 0.0037

Numbers sourced from the supplement of paper PMC11061612.
